# method_summary: Plasma protein binding in mouse at 5 uM after 5 hrs by equilibrium dialysis
# Assay type: ADME, cell-free
# experimental_setup: read-out: PPB (converted)
measured_metric: fraction unbound at 5 h, 5 µM
Numbers only.

Request: Which fraction unbound at 5 h, 5 µM reading was recorded for the molecule CC(C)NC(=O)Nc1ccc2c(c1)C(=O)N([C@H](C)CO)C[C@@H](C)[C@H](CN(C)S(=O)(=O)c1ccc(Cl)cc1)O2 ?
Result: 0.053

###

# measurement_target: Scavenger receptor class B member 1 (Mus musculus)
# method_summary: Inhibition of mouse SR-B1 overexpressed in CHO cells assessed as inhibition of transfer of the fluorescent lipid DiI from HDL particles to cells after 3 hrs
# Format: cell-based
measured_metric: IC50 (µM)
Numbers only, in µM.

structure_smiles_string: COc1ccc(CN(C)C[C@@H]2Oc3ccc(NC(=O)Cc4cn(C)c5ccccc45)cc3C(=O)N([C@H](C)CO)C[C@H]2C)cc1
readout_value: 2.6

Each of the following entries comes with a recorded value; kindly state IC50 for each.
1. C[C@@H]1CN([C@H](C)CO)C(=O)c2cc(NS(C)(=O)=O)ccc2O[C@H]1CN(C)S(=O)(=O)c1ccc(Cl)cc1
2. C[C@@H]1CN([C@H](C)CO)C(=O)c2cc(NC(=O)Cc3cn(C)c4ccccc34)ccc2O[C@H]1CN(C)S(=O)(=O)c1ccc(Cl)cc1
3. C[C@@H]1CN([C@H](C)CO)C(=O)c2cc(NC(=O)C3CCCCC3)ccc2O[C@H]1CN(C)S(=O)(=O)c1ccccc1Cl

Result:
1: 1.6; 2: 0.18; 3: 0.18

###

# method_summary: Stability in human plasma assessed as compound remaining at 5 uM after 5 hrs by UPLC-MS analysis
# Format: ADME, cell-free
# experimental_setup: read-out: Stability
measured_metric: remaining at 5 h, 5 µM

Request: Which remaining at 5 h, 5 µM reading was recorded for the compound CC(C)NC(=O)Nc1ccc2c(c1)C(=O)N([C@H](C)CO)C[C@@H](C)[C@H](CN(C)S(=O)(=O)c1ccc(Cl)cc1)O2 ?
Result: > 99%

###

Exercise: for every item that follows, state its recorded IC50.
# measurement_target: Scavenger receptor class B member 1 (Mus musculus, UniProt Q61009)
# Sequence (Q61009 whole entry): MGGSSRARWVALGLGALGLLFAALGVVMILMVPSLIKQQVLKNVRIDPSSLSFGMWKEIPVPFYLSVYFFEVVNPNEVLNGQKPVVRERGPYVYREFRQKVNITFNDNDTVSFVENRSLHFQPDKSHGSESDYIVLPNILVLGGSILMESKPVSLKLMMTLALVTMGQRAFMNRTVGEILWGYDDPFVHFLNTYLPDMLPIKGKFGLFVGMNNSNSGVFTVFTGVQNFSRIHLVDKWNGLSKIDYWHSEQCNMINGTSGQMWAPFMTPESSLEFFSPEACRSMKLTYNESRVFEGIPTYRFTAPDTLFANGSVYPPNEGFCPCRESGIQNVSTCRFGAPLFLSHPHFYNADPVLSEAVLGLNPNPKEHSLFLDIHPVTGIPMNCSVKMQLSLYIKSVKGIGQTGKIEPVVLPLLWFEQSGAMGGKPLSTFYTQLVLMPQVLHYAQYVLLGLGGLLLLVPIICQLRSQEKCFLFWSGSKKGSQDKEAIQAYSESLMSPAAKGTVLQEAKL
# method_summary: Inhibition of mouse SR-B1 overexpressed in CHO cells assessed as inhibition of transfer of the fluorescent lipid DiI from HDL particles to cells after 3 hrs
# Format: cell-based

Some entries whose results are on file:
structure_smiles_string: C[C@@H]1CN([C@H](C)CO)C(=O)c2cc(NC(=O)C3CCCCC3)ccc2O[C@H]1CN(C)S(=O)(=O)c1ccc(Cl)cc1
readout_value: 54 nM
--
structure_smiles_string: C[C@@H]1CN([C@H](C)CO)C(=O)c2cc(NC(=O)Cc3cn(C)c4ccccc34)ccc2O[C@H]1CN(C)CC1CCCCC1
readout_value: 9200 nM

Each of the following entries comes with a recorded value; kindly state IC50 for each.
1. CC(C)NC(=O)Nc1cccc2c1O[C@@H](CN(C)S(=O)(=O)c1ccc(Cl)cc1)[C@H](C)CN([C@H](C)CO)C2=O
2. C[C@@H]1CN([C@H](C)CO)C(=O)c2cc(NC(=O)Nc3ccc(F)cc3)ccc2O[C@H]1CN(C)S(=O)(=O)c1ccc(Cl)cc1
3. C[C@@H]1CN([C@H](C)CO)C(=O)c2cc(NC(=O)NC3CCCCC3)ccc2O[C@H]1CN(C)S(=O)(=O)c1ccc(Cl)cc1
4. C[C@@H]1CN([C@@H](C)CO)C(=O)c2cc(NC(=O)Cc3cn(C)c4ccccc34)ccc2O[C@@H]1CN(C)S(=O)(=O)c1ccc(Cl)cc1
5. C[C@@H]1CN([C@@H](C)CO)C(=O)c2cc(NC(=O)Cc3cn(C)c4ccccc34)ccc2O[C@H]1CN(C)S(=O)(=O)c1ccc(Cl)cc1

Result:
["> 25000 nM", "92 nM", "350 nM", "10000 nM", "910 nM"]
